The origin of these recorded values is the supplement of paper PMC5949888.

- Tested on: Saccharomyces cerevisiae PS128 hsf1 delta, HSF1(1-493) fusion
- assay-text: growth estimate (transactivation domain function in HSF1 fusion, heat-shock survival) (a.u. (slope of normalised read count over time)); higher = stronger growth at 37°C, i.e. more transactivation activity
- settings: library: design library
Catalogue of sequences with associated growth estimate
Please give only the number in your answer, with no unit.

Before answering, review these 2 worked examples.
| chain | growth estimate |
| --- | --- |
| PADDIWEELLSEDL | 2.99 |
| EDDDEFSLWDSMG | -0.226 |

IN: Check the records and state growth estimate for VADDIAEELLSEDL
OUT: -0.224

IN: Report measured growth estimate; entry is VADDIWRELLSEDL
OUT: 7.56

IN: Query growth estimate for EDDDEFRLWDSML
OUT: -0.0562

----------
- System: Saccharomyces cerevisiae PS128 hsf1 delta, HSF1(1-493) fusion
- assay-text: growth estimate (transactivation domain function in HSF1 fusion, heat-shock survival) (a.u. (slope of normalised read count over time)); higher = stronger growth at 37°C, i.e. more transactivation activity
- settings: library: design library
Classify as follows. Reported growth estimate greater than or equal to 0.3: TRUE. Reported growth estimate below: FALSE.

Below are worked cases with known answers.
| chain | assigned-label |
| --- | --- |
| MLSSHGFSVDGSALLDLFSP | FALSE |
| DFDLDALGDFDLDMLG | TRUE |

IN: Kindly determine if growth estimate recorded for ALDESWDYIFETTE is above or exactly 0.3.
OUT: TRUE

IN: // inclusive: growth estimate at least 0.3? input: DFDLAMLGDFDLDMLG
OUT: TRUE

IN: Reported growth estimate at or above 0.3? DELSWPIELLEKDG
OUT: FALSE

IN: Is growth estimate at least 0.3? Consider PEFPGIELQELQERQALLQQ
OUT: FALSE

IN: Hi team, for PKPDTQDDFLKWWRSEEAQ , is the recorded growth estimate at or above 0.3?
OUT: FALSE

----------
We begin with a simple list: items and their reported growth estimate.
- Test system: Saccharomyces cerevisiae PS128 hsf1 delta, HSF1(1-493) fusion
- assay-text: growth estimate (transactivation domain function in HSF1 fusion, heat-shock survival) (a.u. (slope of normalised read count over time)); higher = stronger growth at 37°C, i.e. more transactivation activity
- settings: library: design library
Lab note: record the figure alone, no unit after it.

| chain | growth estimate |
| --- | --- |
| MLSSHGFSVDRSALLDLFSP | -0.204 |
| DLDESWDYIFEPTE | 1.97 |
| DELSWIIELLEKDK | 0.564 |
| DLDESWDYIAETTE | -0.174 |

IN: Write down growth estimate measured for item TMDDPYNYLFDD
OUT: -0.0775

IN: Look up and report measured growth estimate for this entry: TMDDVYGYLFDD
OUT: 0.586

IN: Retrieve growth estimate measured for GLSSHGFSVDTSALLDLFSP and print it.
OUT: 0.18

----------
- Tested on: Saccharomyces cerevisiae PS128 hsf1 delta, HSF1(1-493) fusion
- assay-text: growth estimate (transactivation domain function in HSF1 fusion, heat-shock survival) (a.u. (slope of normalised read count over time)); higher = stronger growth at 37°C, i.e. more transactivation activity
- settings: library: design library
The reader will find reported growth estimate values listed item by item below.
Format: numeric value only, no unit, no commentary.

Past entries and their recorded results:
| chain | growth estimate |
| --- | --- |
| DLDESWPYIFETTE | -0.161 |
| LFDYDRLFGNDFA | -0.0061 |
| EDDGEFSLWDSML | 0.47 |
| EDDDEFGLWDSML | 0.402 |
| DELSWIIELLEGDG | 2.77 |

Next sequence, please.
IN: Identify measured growth estimate associated with ALSSHGFSVDTSALLDLFSP
OUT: 0.065

----------
In this section, each of the sequences is paired with its reported growth estimate.
- Test system: Saccharomyces cerevisiae PS128 hsf1 delta, HSF1(1-493) fusion
- assay-text: growth estimate (transactivation domain function in HSF1 fusion, heat-shock survival) (a.u. (slope of normalised read count over time)); higher = stronger growth at 37°C, i.e. more transactivation activity
- settings: library: design library
Provide a numeric answer; units are not to be included.

IN: State its growth estimate for this sequence: EDKDEFSLWDSML
OUT: -0.0707

----------
- Tested on: Saccharomyces cerevisiae PS128 hsf1 delta, HSF1(1-493) fusion
- assay-text: growth estimate (transactivation domain function in HSF1 fusion, heat-shock survival) (a.u. (slope of normalised read count over time)); higher = stronger growth at 37°C, i.e. more transactivation activity
- settings: library: design library
This section presents sequences with their documented growth estimate values.
Please state the value as a number alone, without comment.

| chain | growth estimate |
| --- | --- |
| EDDDEFSLADSML | -0.236 |
| DGDLDMLGDFDLDMLG | 0.418 |
| DFDGDMLGDFDLDMLG | 1.92 |
| MGSSHGFSVDTSALLDLFSP | 0.215 |

IN: Quick one: give measured growth estimate for VADDIWEELLSEGL
OUT: 10.4

IN: Look up and state reported growth estimate for VADDIWEELLSERL
OUT: 5.09

IN: Report growth estimate, nothing else, for this sequence: TMDDVYAYLFDD
OUT: 4.4

IN: Provide one value: measured growth estimate of DFPLDMLGDFDLDMLG
OUT: 3.12

IN: Could you please provide reported growth estimate for LFDYDFLFANDFA ? Thanks!
OUT: 2.92

IN: Give the reported growth estimate for this sequence. DFDLDMLGDFDLDALG
OUT: 0.195

IN: Return value of growth estimate for input VAADIWEELLSEDL , no commentary.
OUT: 1.83

----------
- Tested on: Saccharomyces cerevisiae PS128 hsf1 delta, HSF1(1-493) fusion
- assay-text: growth estimate (transactivation domain function in HSF1 fusion, heat-shock survival) (a.u. (slope of normalised read count over time)); higher = stronger growth at 37°C, i.e. more transactivation activity
- settings: library: design library
Classification field: 1 (yes) = growth estimate at or over -0.05; 0 (no) = growth estimate under -0.05.

The following sequences have reported results that may help.
| chain | assay-target | assigned-label |
| --- | --- | --- |
| PFPDTQDPFLKWWRSEEAQ | Saccharomyces cerevisiae PS128 hsf1 delta, HSF1(1-493) fusion | 0 (no) |
| DLDESWDYAFETTE | Saccharomyces cerevisiae PS128 hsf1 delta, HSF1(1-493) fusion | 0 (no) |
| EDLYSILWGDVY | Saccharomyces cerevisiae PS128 hsf1 delta, HSF1(1-493) fusion | 0 (no) |
| ERDDEFSLWDSML | Saccharomyces cerevisiae PS128 hsf1 delta, HSF1(1-493) fusion | 1 (yes) |
| PFPDTQDDFLKWRRSEEAQ | Saccharomyces cerevisiae PS128 hsf1 delta, HSF1(1-493) fusion | 0 (no) |
| EDLYSILWSDVY | Saccharomyces cerevisiae PS128 hsf1 delta, HSF1(1-493) fusion | 1 (yes) |

IN: Determine whether measured growth estimate meets or exceeds -0.05 for PEFPGIELQELQELQALRQQ
OUT: 0 (no)

----------
Item-by-item account of growth estimate
- Test system: Saccharomyces cerevisiae PS128 hsf1 delta, HSF1(1-493) fusion
- assay-text: growth estimate (transactivation domain function in HSF1 fusion, heat-shock survival) (a.u. (slope of normalised read count over time)); higher = stronger growth at 37°C, i.e. more transactivation activity
- settings: library: design library

// known answers, use as guide
| chain | quantity-kind | measured-result |
| --- | --- | --- |
| PEFPGIEGQELQELQALLQQ | growth estimate | < -0.25 |
| EFNDLLDLDRILSN | growth estimate | 0.151 |
| PEFPGIELRELQELQALLQQ | growth estimate | 0.0112 |

IN: # return recorded growth estimate for input LFDYDGLFGNDFA
OUT: 0.114

IN: // Input: QQNGEIAQLWDFA . Output its growth estimate only.
OUT: < -0.25

IN: Provide only the value of recorded growth estimate for EFNDLLDLDFILKN
OUT: 2.1

IN: Fill in growth estimate for record PFPDTQDDFLKPWRSEEAQ
OUT: < -0.25

IN: Note growth estimate for the sequence shown: VADDIWEELLPEDL
OUT: -0.022

IN: Query growth estimate for TMDDVYRYLFDD
OUT: 1.71

IN: Give the measured growth estimate for EFNDLLDRDFILSN
OUT: -0.0427

----------
- Test system: Saccharomyces cerevisiae PS128 hsf1 delta, HSF1(1-493) fusion
- assay-text: growth estimate (transactivation domain function in HSF1 fusion, heat-shock survival) (a.u. (slope of normalised read count over time)); higher = stronger growth at 37°C, i.e. more transactivation activity
- settings: library: design library
Tick yes (1) if growth estimate is -0.03 or greater. Tick no (0) if growth estimate is less than -0.03.

Example entries and their recorded answers appear below.
| chain | assigned-label |
| --- | --- |
| MLSSHGFKVDTSALLDLFSP | no (0) |
| PEFPKIELQELQELQALLQQ | no (0) |
| TMDDVYNYKFDD | no (0) |
| KEFPGIELQELQELQALLQQ | no (0) |
| EDDDEFSLWDSAL | no (0) |

IN: Is reported growth estimate greater than or equal to -0.03 here: MKSSHGFSVDTSALLDLFSP
OUT: no (0)

IN: # check: growth estimate of PFPDTQDDFLKWWRSEEAR is greater than or equal to -0.03
OUT: no (0)

IN: Given the entry EFNDLGDLDFILSN , answer whether its growth estimate meets or surpasses -0.03.
OUT: yes (1)

IN: Has MLSSHGFSVDTKALLDLFSP a recorded growth estimate greater than or equal to -0.03?
OUT: no (0)

IN: Please check the record EDDDEFSLWGSML and state if its growth estimate is at or above -0.03.
OUT: yes (1)

IN: For this sequence, is measured growth estimate -0.03 or higher? EDLYSIGWSDVY
OUT: no (0)

IN: Entry MLSSHGFSVDTSALLDPFSP : is its growth estimate no less than -0.03?
OUT: no (0)

IN: Determine whether this sequence has growth estimate no lower than -0.03: EDLYSILWSDRY
OUT: no (0)

IN: Given QQNGEIRQLWDFN , state whether its growth estimate is at least -0.03.
OUT: no (0)
